test system: DLD-1; test: NCI tumour cell line growth inhibition, 48 h
Activity calls are given as the source filed them. Rule as the data show it: active = GI50 up to about 1.1 µM and inactive = higher.
Output constraint: value belongs to active, inactive

Study these solved cases before continuing.
compound: CC(C)=CC(=O)C/C(=N\NC(N)=S)C(=O)Nc1ccc(Cl)cc1
assay.system: DLD-1
class.label: inactive

compound: O=C(O)C(CS)Nc1c2ccccc2nc2ccccc12 (stereo not drawn)
assay.system: DLD-1
class.label: inactive

compound: COC(=O)C(Cc1nc2ccccc2nc1O)C(=O)C(=O)Nc1ccc(F)cc1 (stereo not drawn)
assay.system: DLD-1
class.label: inactive

compound: COc1ccc(/C=C/C(=N\NC(=O)c2ccccc2)c2sc(Nc3ccc([N+](=O)[O-])cc3)nc2C)cc1OC
assay.system: DLD-1
class.label: inactive

Ask: Recorded test outcome, item Cc1cn(C2CC(O)C(COC(=O)c3ccccc3)O2)c(=O)[nH]c1=O (stereo not drawn)
Reply: inactive

Ask: Could you kindly confirm the outcome this assay logged for C/C=C(\C)c1cc(=O)c2c(C)cc3c(c2o1)C(=O)c1c(O)c(C2CC(C)(N(C)C)C(O)C(C)O2)cc(C2CC(N(C)C)C(O)C(C)O2)c1C3=O (stereo not drawn) ?
Reply: inactive

Ask: Which outcome was entered for the compound CCCCNC(=S)OCCC(C)CCCC(C)C (stereo not drawn) in this test?
Reply: inactive

Ask: Answer briefly: the call reported for O=Cc1cn(C(=O)c2ccccc2)c2ccccc12 in this assay.
Reply: inactive

Ask: # lookup: test call for CC#CCC1CCC(OCC)=CC1=O (stereo not drawn)
Reply: inactive

Ask: Would you mind telling me which call this test gave CCC1(c2ccc(N)cc2)CCC(=O)NC1=O (stereo not drawn) [AMINOGLUTETHIMIDE] ?
Reply: inactive

Ask: Hi, do you know how c1ccc2c(c1)C1=NCCN1c1ccccc1-2 came out in this test?
Reply: inactive

Ask: For this compound, state the assay outcome: CCCCCC(=O)OC[n+]1ccc2c(C)c3[nH]c4ccc(OC)cc4c3c(C)c2c1
Reply: active

Ask: Record request — test call for C/C(=N\N(C)C)c1sc(-n2nc(-c3ccccc3)cc2-c2ccccc2)nc1C
Reply: inactive

---

Measured GI50 accompanies every entry in the list below.
system: Malme-3M; assay: NCI tumour cell line growth inhibition, 48 h
Calls of active or inactive are those of the source. Cut-off read from the data, not from the text of the source: active = GI50 up to about 1.1 µM and inactive = higher.

Example cases with answers are listed next.
compound: CN(CCCNCc1ccccn1)Cc1ccccc1O
reported.value: 27.8 µM (inactive)
--
compound: CC(C)(C)C(=O)/C=C/c1ccc(Oc2ccccc2)cc1
reported.value: 19.2 µM (inactive)

Continue with the next compound.
For CCOC(=O)C(/C(=N\NC(=O)OC)C(=O)Nc1cc(OC)ccc1OC)c1cnc2ccccc2n1 (stereo not drawn) the compound record lists GI50 as > 100 µM (inactive)

---

# maps each entry to its GI50
test system: SNB-19; test: NCI tumour cell line growth inhibition, 48 h
The source made the active and inactive calls. Cut-off read from the data, not from the text of the source: active = GI50 up to about 1.1 µM and inactive = higher.

Example entries begin here.
compound: O=C(O)C(CS)Nc1c2ccccc2nc2ccccc12 (stereo not given)
assay.endpoint: GI50
reported.value: 61.1 µM (inactive)
--
compound: C/C=C1\CC2C(=O)CCC2C2c3ccccc3OC12 (stereo not given)
assay.endpoint: GI50
reported.value: > 100 µM (inactive)
--
compound: CN(C)CCOc1ccc(I)cc1Cc1ccccc1
assay.endpoint: GI50
reported.value: 13.7 µM (inactive)
--
compound: Cc1cc(C)c2c(n1)S(=O)(=O)N(CCCN1CCN(c3cccc(C(F)(F)F)c3)CC1)C(C(=O)c1ccc(Cl)cc1)=C2O
assay.endpoint: GI50
reported.value: 2.2 µM (inactive)
--
compound: CC(=O)OC(OC(C)=O)c1ncccc1C(=O)OC(C)C
assay.endpoint: GI50
reported.value: > 100 µM (inactive)
--
compound: O=C(CCN1CCOCC1)Nc1ccc2sc3ccccc3c(=O)c2n1
assay.endpoint: GI50
reported.value: 49.2 µM (inactive)
--
compound: CN1CCCC(OC(=O)c2cc3cc(CCl)ccc3oc2=O)C1 (stereo not given)
assay.endpoint: GI50
reported.value: 27.7 µM (inactive)
--
compound: CC(C)(C)NC(=O)[C@H]1CC[C@H]2[C@@H]3CC=C4NC(=O)CC[C@]4(C)[C@H]3CC[C@]12C
assay.endpoint: GI50
reported.value: > 100 µM (inactive)
--
compound: CCP(=O)(OC)C1=CCN(C(=O)OCC[Si](C)(C)C)CC1 (stereo not given)
assay.endpoint: GI50
reported.value: > 100 µM (inactive)
--
compound: COc1ccc(-c2cc(-c3cc4cc(Br)ccc4nc3Cl)c(C#N)c(N)n2)cc1
assay.endpoint: GI50
reported.value: > 12.5 µM (inactive)

Item: C=CCSc1nn(CC=C)cc2ncnc1-2 | GI50: > 100 µM (inactive)

Per the records, this compound ( CN(C)CCNC(=O)c1cccc2c(NC(CCCNC(=N)N)C(=O)O)c3ccccc3[n+](C)c12 (stereo not given) ) has GI50 equal to > 100 µM (inactive)

The recorded GI50 for CCOC(=O)Cc1csc2[n+]1C(=O)/C(=C\c1cccc(Cl)c1Cl)S2 is 21 µM (inactive)

---

Reported GI50 values for the following molecules.
tested on: UACC-257; experiment: NCI tumour cell line growth inhibition, 48 h
The source made the active and inactive calls. No stated cut-off is given here; in the data, active = GI50 up to about 1.1 µM and inactive = higher.

Reference set (3 entries):
molecule: CCOC(=O)CC(=O)ON(C)C(=O)Cc1ccccc1
GI50: > 100 µM (inactive)
//
molecule: C1CC[C@H]2SSC3CCCC[C@H]3SSC2C1 (some centres undefined)
GI50: > 100 µM (inactive)
//
molecule: CS/C(=N\c1ccccc1)N(c1ccccc1)c1nc(=[N+](C)C)ss1.[O-][Cl+3]([O-])([O-])[O-]
GI50: 2.05 µM (inactive)

Note to self: GI50 recorded for Ic1ncnc2c1ncn2C1CCCO1 (centres undefined) was > 100 µM (inactive)

---

system: MDA-MB-231; test: NCI tumour cell line growth inhibition, 48 h
Calls of active or inactive are those of the source. Rule as the data show it: active = GI50 up to about 1.1 µM and inactive = higher.
Please reply with one of these outcomes: active, inactive

Below, 3 molecules whose answers are already recorded.
molecule: C=C(NC(=O)C(=C)NC(=O)c1csc(C2=NC3c4csc(n4)C4NC(=O)c5csc(n5)C(C(C)(O)C(C)O)NC(=O)C5CSC(=N5)/C(=C/C)NC(=O)C(C(C)O)NC(=O)c5csc(n5)C3(CC2)NC(=O)C(C)NC(=O)C(=C)NC(=O)C(=C)NC(=O)C(C(C)C)NC2C=Cc3c(C(C)O)cc(nc3C2O)C(=O)OC4C)n1)C(N)=O (stereo unspecified)
assay.system: MDA-MB-231
class.label: active
//
molecule: COc1cc([C@@H]2c3cc4c(cc3[C@@H](/N=C/c3ccc(C(=O)O[C@H]5C[C@H]6OC[C@@]6(OC(C)=O)[C@H]6[C@H](OC(=O)c7ccccc7)[C@]7(O)C[C@H](OC(=O)[C@H](OC(=O)c8ccc(/C=N/[C@@H]9c%10cc%11c(cc%10[C@@H](c%10cc(OC)c(O)c(OC)c%10)[C@H]%10C(=O)OC[C@@H]%109)OCO%11)cc8)[C@@H](NC(=O)c8ccccc8)c8ccccc8)C(C)=C([C@@H](OC(C)=O)C(=O)[C@]56C)C7(C)C)cc3)C3COC(=O)C32)OCO4)cc(C)c1O (stereo partly specified)
assay.system: MDA-MB-231
class.label: inactive
//
molecule: CN1CCCC(OC(=O)c2cc3cc(CCl)ccc3oc2=O)C1 (stereo unspecified)
assay.system: MDA-MB-231
class.label: inactive

Ask: What did this assay record as the result for N#Cc1c(C#N)c(SSc2c(C#N)c(C#N)c(N)n2-c2ccc(F)cc2)n(-c2ccc(F)cc2)c1N ?
Reply: inactive

Ask: Would you mind telling me which call this test gave COC(=O)C1Cc2ccc(C)cc2C1=O (stereo unspecified) ?
Reply: inactive

Ask: For Cc1ccc(C)n1-c1ccccc1C1SCCCS1 , which call appears in the assay record?
Reply: inactive

---

system: SF-539; experiment: NCI tumour cell line growth inhibition, 48 h
Calls of active or inactive are those of the source. Rule as the data show it: active = GI50 up to about 1.1 µM and inactive = higher.
Each entry below carries its reported GI50.

Here's what some known entries look like.
molecule: C/C(CC(=O)Nc1cccc([N+](=O)[O-])c1)=N\NC(=O)C[n+]1ccccc1
assay.system: SF-539
GI50: > 100 µM (inactive)
//
molecule: Cc1c(-c2ccccc2)[nH]c2cn[nH]c(=O)c12
assay.system: SF-539
GI50: > 100 µM (inactive)

The reported SF-539 GI50 of Ic1ncnc2c1ncn2C1CCCO1 (configuration not stated) is > 100 µM (inactive)

Form: item OC1OC2COC(c3ccccc3)OC2C(O)C1O (configuration not stated) ; test system SF-539; GI50: > 100 µM (inactive)

GI50 value, target or system SF-539, for C=C1C(=O)O[C@@H]2C[C@]3(C)[C@@H](C[C@H]12)[C@](C)(O)CC[C@@H]3O : 34 µM (inactive)

Readout GI50 for CCOC(=O)NC(C(F)(F)F)(C(F)(F)F)P(=O)(OC(C)C)OC(C)C , test system SF-539, was > 100 µM (inactive)

Short answer on SF-539 for O=C(CCN1CCOCC1)Nc1ccc2sc3ccccc3c(=O)c2n1 , GI50: 60.5 µM (inactive)

Record COc1cccc(-n2nnc3c(N)nc(N)nc32)c1 ; system SF-539; GI50 = > 100 µM (inactive)
